# Species on record: Homo sapiens
# test.summary: Inhibition of platelet aggregation induced by arachidonic acid(AA) in human platelet-rich plasma
# Format: functional
# condition.label: read-out: I50
value.type: IC50 (µM)

Answered cases to consult:
| compound | unit.string | IC50 |
| --- | --- | --- |
| CCCCC(C)(C)[C@H](O)/C=C/C1C(C/C=C\CCCC(=O)O)C2OC1C1OC21 (stereo not given in full) | µM | 2.2 |
| O=C(O)CCC/C=C\CC1C(/C=C/[C@@H](O)C2CCCCC2)C2OC1C1OC21 (stereo not given in full) | µM | 5.2 |
| O=C(O)CCC/C=C\C[C@@H]1[C@H](CNNC(=O)Nc2ccccc2)[C@H]2CC[C@H]1O2 | µM | 0.02 |
| COc1ccc2c(c1)c(CC(=O)O)c(C)n2C(=O)c1ccc(Cl)cc1 [INDOMETHACIN] | µM | 6 |
| O=C(O)COc1ccc(CCNS(=O)(=O)c2ccccc2)cc1 [SULOTROBAN] | µM | 38.5 |

(I) CC1([C@H](O)/C=C/C2C(C/C=C\CCCC(=O)O)C3OC2C2OC32)CCCCC1 (stereo not given in full)
(II) O=C(O)CCC/C=C\CC1C(/C=C/[C@H](O)C2CCCCC2)C2OC1C1OC21 (stereo not given in full)
(III) O=C(O)CCC/C=C\CC1C(/C=C/[C@@H](O)CCc2ccccc2)C2OC1C1OC21 (stereo not given in full)
Q) Hi! Can you put these in order of IC50, lowest number first? Kindly provide the labels arranged according to the requested ordering.
A) I, III, II

(P) CCCCC[C@H](O)/C=C/C1C(C/C=C\CCCC(=O)O)C2OC1C1OC21 (stereo not given in full)
(Q) O=C(O)CCC/C=C\CC1C(/C=C/[C@@H](O)CCc2ccc(O)cc2)C2OC1C1OC21 (stereo not given in full)
Q) Parameter metric = IC50. Return the lower-valued option from P and Q . Answer format: the label of the selected item.
A) Q
(Q: 0.27 µM, P: 15.3 µM)
